B1: VH:VL chains; a variant is named by its letters at X, in order (parent)
chain 1: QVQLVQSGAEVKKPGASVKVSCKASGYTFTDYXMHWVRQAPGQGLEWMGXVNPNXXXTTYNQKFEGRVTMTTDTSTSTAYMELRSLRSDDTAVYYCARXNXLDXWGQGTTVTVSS
chain 2: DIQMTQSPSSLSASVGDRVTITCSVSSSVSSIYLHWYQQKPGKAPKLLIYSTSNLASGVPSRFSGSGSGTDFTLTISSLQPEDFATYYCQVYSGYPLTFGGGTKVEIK

Variants of: B1
Assay: yeast display scFab, FACS + sequencing
Measurement Label: non-specific binding call

> print(dat)
                      mut  experimental.result
 1               VTGGDSLV           no binding
 2               SKGRSSLA           no binding
 3               AGGGNDGV           no binding
 4               FKKGSFGA                binds
 5               FRGRDFVA                binds
 6               FRGRSSVA                binds
 7               YRGRDASF           no binding
 8               SEAGDAVV           no binding
 9               YKRGDAWA           no binding
10               VTAGDAGD           no binding
11               FRTADVGV                binds
12               VEGTSAGD           no binding
13               FRTRGAAA                binds
14               YRRRGDAA                binds
15               YKGRGSLF                binds
16               DKEGGYSV           no binding
17               YRRGGFGV                binds
18               YRAKGAWY                binds
19               VAEKGALA           no binding
20               YRAGSAAD                binds
21               SAGRGSAA                binds
22               YKKGAAGF                binds
23               VRATGYWA                binds
24               YKKESDSY           no binding
25               YREGGDGA           no binding
26               YKKTGDLY           no binding
27               ARAGDAVA           no binding
28               VEGTGDWD           no binding
29               FAGRGALD                binds
30               VRGTDAVV           no binding
31               VAGTSDGA           no binding
32               YKGADFGD                binds
33               YARADDVA           no binding
34               DGGEGVVY                binds
35               YRARSASV                binds
36               DGGKNDGS           no binding
37               AAEGDAAD           no binding
38               FTEEGAGD           no binding
39               YRGRSAGA                binds
40  VRGGDAVY chain 1 G44D           no binding
41               FKGRGAAD                binds
42               FRTGDDAV           no binding
43               DTTGSASF           no binding
44               YKGAGAWA                binds
45               VTTKSDGY           no binding
46               AKGRGDGA           no binding
47               YRKGSSAA                binds
48               YRRGAAGD                binds
49               VKEGGAVV           no binding
50               FRRGGAWV                binds
51               FKGRGAAY                binds
52               YRAGDDVY           no binding
53               YAGGGDWA           no binding
54               VTTKSDVF           no binding
55               ATTKSDVA           no binding
56               DAGGAAVS           no binding
57               VKGRGDSF           no binding
58               FAAGGSGD                binds
59               VTKGGSSA           no binding
60               YRERSSVA                binds
61               YRAGASGD                binds
62               SEARSSGY           no binding
63               YRRRGYAA                binds
64               DTTGSDVY           no binding
65               DTREGAVV           no binding
66               YATKGFGD                binds
67               YRTRDSVD                binds
68               ARAGDAVV           no binding
69               YKGKGSLD                binds
70               YKARSALF                binds
71               VRGGGDGY           no binding
72               YRGRSASS                binds
73               FKGEGDGV           no binding
74               VKGRGSWY                binds
75               YKRRNSGD                binds
76               DKEGGAAA           no binding
77               VAGGDAVA           no binding
78               FTEEGAVD           no binding
79               VEGTSDLS           no binding

Each recorded value in this set is attributed to the emibetuzumab library of Makowski et al. (2022).
